# Test system: gene editing with dCas9
# assay remarks: Screen of 322 new SSAP proteins, gene editing activity with dCas9 (Table 5)
# Type: cell-based
# particulars: normalized
endpoint name: dCas9 with SSAP activity (normalized)
In your answer, state the number alone without any accompanying words.

Exercise: Recall and state the measured dCas9 with SSAP activity (normalized) for SSAP_107: SEQ ID NO: 276; Ammoniphilus oxalaticus (protein, listed as Ammoniphilus oxalaticus) STKATSNELKNQLANRQGNNAATNNNPANTIAAYLKRMAPEIEKALPAHMDADRLARIALTTIRTTPKLLECTIPSLMGAVMQSAQLGLEPGLIGHCYIIPYGKEATFIIGYKGMIDLARRSGNIESIYAHAVYKNDEFEYEYGLKPNLVHKPAMSDQGDFIGAYAVAHFKDGGYQFEFMPKEEIDKRRNRSAASKGGPWVTDYEEMAKKTVVRHMWKYLPISIEIQQAATQDEVVRKDITEDPMPVDVLDIPFEASDAEETSEEGEINFD .
Solution: −0.615
